experiment: protease stability score; higher = more stable; yeast display proteolysis, trypsin and chymotrypsin;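 further: relative to predicted unfolded state with 0 unfolded-like and 1 meaning tenfold more protease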
Label condition met when protease stability score is at or above 1; anything below gets condition not met.

{"columns": ["sequence_text", "class_name"],
 "data": [
  ["SETREDTRELVESFLNALRTGDEDLLRRLMDPHVKVYFNGREFHGRELATRVESHLRVHDIDVRDMRIIGDKVIIDLQVDGEWDGVRFHRETELHTQKVNGRWFIREIRIH", "condition met"],
  ["SELEEKTEKWARLFWLLYKTGDWETLEKLLDPHVRSEINGKEEHGRENMIRMLVDLLRLLGIDHIELHHIEFVNGKVIIHLSLHAENHSSELIIEVNIINGKIESIRIEVR", "condition met"],
  ["SDLREEVKEFLKLLVEAFETGDEEALHELMDPNTRFRYGDKDLIGMKILERWWHELFRHLGVDRFRIELRVHHVTIINGQMHNDGTLIIRQGDKEERFKINLVIEKIDGRWIIHMVIFE", "condition not met"],
  ["TDEEELAERLARIMIHLFLTGNEEIMSKLLDPDVRSWVNGQEFHGREEEAKVVRKMIEEWRFHDMHIHDVHVINGRLHVDSRVDNRVGDKTIDIRTELRFDVVNGRLKILEWHFT", "condition not met"],
  ["DERHEKAERVTRELIKLLITGDEDLLDDLIDPNARIEIGDKVTHGRDKFSREISEMGVDHVELKEIHVYGDKAIIKGKLDINGKRNKFILIMEKINGRWFLRSMRVEDH", "condition met"],
  ["DDDTREFEKWEKIWVEYYQTGNFDHLRRLIDPNVRSIVDGKEFHGREAMASMILEETKRADHIEMDLTRHEIIGEKMIIHSRIEIQVGDYHDHYRLELESIKVNGKWIVHRESYR", "condition not met"]
]}

====

# protease stability score per entry
assay: protease stability score; higher = more stable; yeast display proteolysis, trypsin and chymotrypsin;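 further: relative to predicted unfolded state with 0 unfolded-like and 1 meaning tenfold more protease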
measure: protease stability score

{"columns": ["sequence_text", "observed_value"],
 "data": [
  ["SEELELAKWLLEEWIRAVETGDERTLKELADPDVKMHIGDKNHIGWEEYVRFLRHLRITVRRMEVKHMHVFDGRIHIHGHFDIEINIGDKHLRRHHDVEIILVVVDGKLTSIEIRNH", 1.5],
  ["SEEEKILDKLMELLSRLVHTGDEKEWADLMDPDTKLHVGDKTYIGMEKVTEFLHEMRVHHLELHDKRVIGDKARVHTNLRGVIDGRDVNLETHMIITKINGKWVIHSVEVR", 1.02],
  ["DELAEYAKEVIERIDHSITTGDERSVKRLLDPDVKLLIGDKELHGREDWEEWMKRIDHVSVRDSRIKEVKVYDGRLRIDGHKRMYYFNENEEREHTTRVVIILLKIDGRWVMHSVHFI", 1.4]
]}

====

test: protease stability score; higher = more stable; yeast display proteolysis, trypsin and chymotrypsin;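 further: relative to predicted unfolded state with 0 unfolded-like and 1 meaning tenfold more protease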
measure: protease stability score

{"columns": ["sequence_text", "measure", "observed_value"],
 "data": [
  ["DEEEKWMRNLTEWLLKSLTTGDFESFNRMFDPRTRMHVDGREFHGREEVERYLREFDDKLGADHRESDLEHIEVQGNKARFHTTLKFDIGDKHLRIDTHLVIVKINGQWRIRHVEVR", "protease stability score", 0.839],
  ["DENEETMRHYFELLVRNLRTGDWHSLTRLMDPHVRLEYNGREFHGMEEVIRFLLHIRLRHLHLERVEIQGDKVRMHVSVDGEVNGRREEWDVELIARKIDGRWIQTSEIYR", "protease stability score", 0.212],
  ["DDMHRELRKLAEEIEKLIETGDEDRLRTLLDPHTRVEIGDWSDMGWDAIHKMIRHIRIDSVTIRREHFFNGRVHTDIEVDGTIGDKKDIRHVELEIVIVDGRVKEIKMIYV", "protease stability score", 2.13],
  ["DEDKEWAHRILEHFLDNLRTGNEERLEELADPNTRVVIDGQEEHGMHVFNTLHKELRIDRIHLTSWDIQGDKLHLDVRVDGTFNGQREVTRVHIYFRVVNGRVKDIQIHVI", "protease stability score", 1.8],
  ["SEDEEKSKRDAQHWFNNWLTGDWRRTLELADPHARIDINGKELHGMHESLELLTRLIEKLGVDHIEMKKSDVVGDKMHIHGHLDIDGQKRDLTIFLLIIDGRLKHSQFELT", "protease stability score", 0.165],
  ["SEEEEAKRDLDERWFRSIETGDFHTLEKLLDPHAKVRINGKDYHGREYLEWEIRDLGVKVMEQRVIIHREHRQGDKIHLQGEIIRILHVDGREEHHRFEVHYVMLKINGRWILHRMEFR", "protease stability score", 0.883]
]}
